Consider the following compounds and their measured solubility at 24 h readings.
assay: physchem; conditions: pH 7.4, aqueous buffer, kinetic from dmso stock, Solubility Range

[
  {
    "compound": "CCNC(=O)Nc1nc2cc(-c3cnc(N4CCC(C)(C(=O)O)CC4)nc3)cc(/C(C)=N/O)c2s1",
    "solubility at 24 h": "> 800 µg/mL"
  },
  {
    "compound": "CCNC(=O)Nc1nc2cc(-c3cnc(N4CCC(C)(C(=O)O)CC4)nc3)cc(-c3cccn3C)c2s1",
    "solubility at 24 h": "> 800 µg/mL"
  },
  {
    "compound": "CCNC(=O)Nc1nc2cc(-c3ccc(C4=NOC(C)(C(=O)O)C4)nc3)cc(-c3ccccn3)c2s1 (stereo not shown)",
    "solubility at 24 h": "12.5 to 400 µg/mL"
  },
  {
    "compound": "CCNC(=O)Nc1nc2cc(-c3cnc(N4CCC(C)(C(=O)O)CC4)nc3)cc(-c3ncc(C)cc3C#N)c2s1",
    "solubility at 24 h": "12.5 to 400 µg/mL"
  },
  {
    "compound": "CCCC1(C(=O)O)CCN(c2ncc(-c3cc(-c4ncccc4C#N)c4sc(NC(=O)NCC)nc4c3)cn2)CC1",
    "solubility at 24 h": "12.5 to 400 µg/mL"
  }
]

Query block: Please report the measured solubility at 24 h for CCNC(=O)Nc1nc2cc(-c3cnc(N4CCC(C)(C(=O)O)CC4)nc3)cc(-c3ccc(C#N)cn3)c2s1
Result block: > 800 µg/mL

Query block: Read off the recorded solubility at 24 h for CCCC1(C(=O)O)CCN(c2ncc(-c3cc(-c4ccc(C#N)cn4)c4sc(NC(=O)NCC)nc4c3)cn2)CC1
Result block: > 800 µg/mL

###

assay: physchem; settings: pH 7.4, aqueous buffer, kinetic from dmso stock, Solubility (pH 7.4)
measured_endpoint: solubility at 24 h

# count of solved cases: 3
[
  {
    "compound": "CCNC(=O)Nc1nc2cc(-c3cnc(N4CCC(C)(C(=O)O)CC4)nc3)cc(-c3cnccn3)c2s1",
    "measured_endpoint": "solubility at 24 h",
    "result_value": "≥ 0.8 mg/mL"
  },
  {
    "compound": "CCNC(=O)Nc1nc2cc(-c3cnc(N4CCC(C)(C(=O)O)CC4)nc3)cc(/C(C)=N/OCC)c2s1",
    "measured_endpoint": "solubility at 24 h",
    "result_value": "≥ 0.8 mg/mL"
  },
  {
    "compound": "CCNC(=O)Nc1nc2cc(-c3cnc(N4CCC(C)(C(=O)O)CC4)nc3)cc(NC(=O)c3ccccn3)c2s1",
    "measured_endpoint": "solubility at 24 h",
    "result_value": "≥ 0.8 mg/mL"
  }
]

Query block: Report solubility at 24 h, nothing else, for this compound: CCNC(=O)Nc1nc2cc(-c3cnc4c(c3)OC(C)(C(=O)O)C(=O)N4)cc(-c3ccccn3)c2s1 (stereo not shown)
Result block: 0.4 mg/mL

###

assay: physchem; conditions: pH 7.4, aqueous buffer, kinetic from dmso stock, Solubility (pH 7.4)
Measured solubility at 24 h, listed per entry.

Worked examples follow.
[
  {
    "compound": "CCNC(=O)Nc1nc2cc(-c3cnc(N4CCC(C)(C(=O)O)CC4)nc3)cc(-c3nc(C)ccc3OC)c2s1 [Compound 64]",
    "solubility at 24 h": "≥ 800 µg/mL"
  },
  {
    "compound": "CCNC(=O)Nc1nc2cc(-c3ccnc(N4CCC(C)(C(=O)O)CC4)c3)cc(-c3ccccn3)c2s1 [Compound 182]",
    "solubility at 24 h": "200 µg/mL"
  },
  {
    "compound": "CCNC(=O)Nc1nc2cc(-c3cnc(N4CCC(C)(C(=O)O)CC4)nc3)cc(-c3ncc(C#N)cc3C)c2s1 [Compound 69]",
    "solubility at 24 h": "≥ 800 µg/mL"
  },
  {
    "compound": "CCNC(=O)Nc1nc2cc(-c3cnc(N4CCC(C)(C(=O)O)CC4)nc3)cc(-c3nccc(OC)c3F)c2s1 [Compound 55]",
    "solubility at 24 h": "400 µg/mL"
  },
  {
    "compound": "CCNC(=O)Nc1nc2cc(-c3cnc(NC4COC(C)(C(=O)OCC)OC4)nc3)cc(-c3ccccn3)c2s1 (stereo not shown) [Compound 216]",
    "solubility at 24 h": "25 µg/mL"
  },
  {
    "compound": "CCNC(=O)Nc1nc2cc(-c3cnc(N4CCC(C)(C(=O)O)CC4)nc3)cc(C#Cc3cccc(OC)n3)c2s1 [Compound 152]",
    "solubility at 24 h": "100 µg/mL"
  }
]

Please find the next compound below.
Query block: Output measured solubility at 24 h for this item: CCNC(=O)Nc1nc2cc(-c3cnc(NC4CCC(C)(C(=O)O)CC4)nc3)cc(-c3ccccn3)c2s1 (stereo not shown) [Compound 222]
Result block: ≥ 800 µg/mL
